Just for reference, ChEMBL document CHEMBL2417454 is where these values come from.

molecular target: UniProt:P27338; test: Inhibition of human recombinant MAO-B using benzylamine hydrochloride as substrate assessed as H2O2 synthesis at 10 uM after 1 hr by fluorescence assay; settings: read-out: INH
Property Measured: inhibition at 10 µM (%)

Below, 3 compounds whose answers are already recorded.
Structure Notation	inhibition at 10 µM (%)
Fc1ccc(-c2nc3ccc(N4CCCCC4)nc3s2)cc1	92.7
Clc1ccccc1-c1nc2ccc(N3CCCCC3)nc2o1	96.3
Fc1ccc(-c2nc3ccc(N4CCCCC4)nc3o2)cc1	93.4

(a) Clc1ccccc1-c1nc2ccc(N3CCCCC3)nc2s1
(b) c1ccc(CNc2ccc3nc(-c4ccccc4)oc3n2)cc1
In terms of reported inhibition at 10 µM, does a or b have the smaller number? Choose, then provide that item's label.
b

* * *

target: Amine oxidase [flavin-containing] B (Homo sapiens, UniProt P27338); assay: Inhibition of human recombinant MAO-B using benzylamine hydrochloride as substrate assessed as H2O2 synthesis after 1 hr by fluorescence assay
Sequence (P27338 whole entry): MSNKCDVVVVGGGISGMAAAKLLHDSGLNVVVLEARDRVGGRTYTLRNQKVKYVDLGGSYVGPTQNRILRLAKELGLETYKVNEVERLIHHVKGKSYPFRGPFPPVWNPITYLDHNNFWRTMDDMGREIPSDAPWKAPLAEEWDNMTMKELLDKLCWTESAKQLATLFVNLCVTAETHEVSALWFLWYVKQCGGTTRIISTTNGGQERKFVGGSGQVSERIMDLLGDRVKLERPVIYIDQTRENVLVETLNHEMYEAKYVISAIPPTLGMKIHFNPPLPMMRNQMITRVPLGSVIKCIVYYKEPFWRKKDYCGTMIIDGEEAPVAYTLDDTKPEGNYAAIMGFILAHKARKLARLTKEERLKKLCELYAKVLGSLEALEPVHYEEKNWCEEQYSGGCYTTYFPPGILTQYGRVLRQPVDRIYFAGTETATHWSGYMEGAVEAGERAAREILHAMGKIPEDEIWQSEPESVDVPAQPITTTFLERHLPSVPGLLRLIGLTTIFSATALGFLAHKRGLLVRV
Property Measured: IC50 (nM)

Structure Notation	Assayed System	Property Measured	Experimental Result
c1ccc(-c2nc3ccc(N4CCCCC4)nc3o2)cc1	Amine oxidase [flavin-containing] B (Homo sapiens, UniProt P27338)	IC50	1370
Clc1ccc(-c2nc3ccc(N4CCCCC4)nc3s2)cc1	Amine oxidase [flavin-containing] B (Homo sapiens, UniProt P27338)	IC50	358
Fc1ccc(-c2nc3ccc(N4CCCCC4)nc3s2)cc1	Amine oxidase [flavin-containing] B (Homo sapiens, UniProt P27338)	IC50	26.5
c1ccc(-c2nc3ccc(NC4CCCCC4)nc3o2)cc1	Amine oxidase [flavin-containing] B (Homo sapiens, UniProt P27338)	IC50	2540
Fc1ccc(-c2nc3ccc(N4CCCCC4)nc3o2)cc1	Amine oxidase [flavin-containing] B (Homo sapiens, UniProt P27338)	IC50	270

(I) Clc1cccc(-c2nc3ccc(N4CCCCC4)nc3o2)c1
(II) Clc1ccc(-c2nc3ccc(N4CCCCC4)nc3o2)cc1
In terms of reported IC50, does I or II have the smaller number? Choose, then provide that item's label.
I

(I) Clc1ccccc1-c1nc2ccc(N3CCCCC3)nc2s1
(II) Clc1ccccc1-c1nc2ccc(N3CCCCC3)nc2o1
(III) Fc1ccccc1-c1nc2ccc(N3CCCCC3)nc2o1
In this exercise, place the 3 compounds in ascending sequence of their recorded IC50. List each label, following the requested order.
I, II, III
(I: 171 nM, II: 267 nM, III: 665 nM)

* * *

target: Amine oxidase [flavin-containing] B (Homo sapiens); test: Inhibition of human recombinant MAO-B using benzylamine hydrochloride as substrate assessed as H2O2 synthesis at 10 uM after 1 hr by fluorescence assay; conditions: read-out: INH
Property Measured: inhibition at 10 µM (%)

Structure Notation	Assayed System	Experimental Result
Fc1cccc(-c2nc3ccc(N4CCCCC4)nc3o2)c1	Amine oxidase [flavin-containing] B (Homo sapiens)	89.7
c1ccc(-c2nc3ccc(N4CCCCCC4)nc3o2)cc1	Amine oxidase [flavin-containing] B (Homo sapiens)	57.9
Clc1ccc(-c2nc3ccc(N4CCCCC4)nc3s2)cc1	Amine oxidase [flavin-containing] B (Homo sapiens)	84.2
c1ccc(-c2nc3ccc(N4CCCCC4)nc3o2)cc1	Amine oxidase [flavin-containing] B (Homo sapiens)	86.8
c1ccc(-c2nc3ccc(NC4CCCCC4)nc3o2)cc1	Amine oxidase [flavin-containing] B (Homo sapiens)	79.1
